Every entry's value here was drawn from patent US20220119522A1.

Please provide measured pSyk activation (human macrophages) EC50 (nM) for the entries that follow.
# target.entity: T1, human TREM2 on the cell surface (human, UniProt Q9NZC2 19-230)
# T1 sequence: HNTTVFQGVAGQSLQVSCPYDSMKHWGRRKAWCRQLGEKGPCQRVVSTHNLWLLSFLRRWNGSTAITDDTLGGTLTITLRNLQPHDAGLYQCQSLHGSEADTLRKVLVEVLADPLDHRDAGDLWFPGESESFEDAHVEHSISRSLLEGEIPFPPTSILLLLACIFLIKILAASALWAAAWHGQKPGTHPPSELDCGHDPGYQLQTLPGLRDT
# measurement.notes: cell-based or functional assay
Give bare numbers, in nM.

Example cases with answers are listed next.
CL0020141 (antibody, V domains shown, also called Clone CL0020141) VH: EVTLVESGGGLVQPGGSLRLSCATSGFTFTDYYMSWVRQPPGKALEWLGFIRDKANGYTTDYSASVKGRFTISRDNSQNILYLQMNTLRAEDSATYYCSRLLRAQGFAYWGQGTLVTVSA VL: DIVMSQSPSSLGVSIGEKVIMSCTSGQSLLYSNNQKNYLAWYQQKPGQSPKLLIYWASTRESGVPDRFTGSGSGTDFTLTINSVKAEDLAVYYCQQYYRNPFTFGSGTKLEIK; 5.9
CL0020107 (antibody, V domains shown, also called Clone CL0020107) VH: QVQLQQPGAELVKPGASVKMSCRASGYTFTNYWISWVKQRPGQGLEWIGDIYPHSTSTNYNERFRSKATLTVDKSSTTAYMQLSSLTSEDSAVYYCAREGFGISAWGQGTTLTVSS VL: QIVLTQSPAIMSASPGEKVTITCSATSSVSYMHWFQQKPGTSPKLWIYSTSNLASGVPARFSGSGSGTSHSLTISRMEAEDAATYYCQQRSSYPLTFGSGTKLELK; 28.5

Now look at this entry.
Q) Consider the binder shown here: CL0020113 (antibody, V domains shown, also called Clone CL0020113) VH: QIQLVQSGPELKKPGESLKISCKASGYTFTDYAMQWVKQAPGKGLQYMGWINTQTGKPTYADDFKERFVFSLETSASTAYLKINNLKNDDMATYLCARSYGGEYNWIAYWGQGTLVTVSS VL: DIVMTQTPSSQAVSAGEKVTMNCKSSQSLLYNENKKNYLAWYQQKPGQSPKLLIYWASTRESGVPDRFIGSGSGTDFTLTISSVQAEDLAVYYCQQSYNFPPTFGGGTKLELK What is its recorded pSyk activation (human macrophages) EC50 (nM)?
A) 24.8
